- target.system: MMP-13 (Homo sapiens, UniProt P45452)
- Construct: made in house; host or cells: baculovirus / insect cells
- assay.method.text: biochemical
- test.conditions: recombinant human MMP-13, MCA peptide substrate 4 μM, pH 7.5, room temperature; read-out: MMP-13 IC50
Entries and their measured IC50 follow.
Report the value in nM with no unit label.

Recorded results for 6 molecules are shown here.
molecule: CCc1ccc(C(=O)C2CCN(c3ccc(S(=O)(=O)C4(C(=O)NO)CCOCC4)cc3)CC2)cc1
value.kind: IC50
units.symbol: nM
measured.number: 1.6
--
molecule: CC(=N)N1CCC(C(=O)NO)(S(=O)(=O)c2ccc(Oc3ccc(OC(F)(F)F)cc3)cc2)CC1
value.kind: IC50
units.symbol: nM
measured.number: 0.4
--
molecule: O=C(NO)C1(S(=O)(=O)c2ccc(N3CCC(CCOCc4cccc(C(F)(F)F)c4)CC3)cc2)CCOCC1
value.kind: IC50
units.symbol: nM
measured.number: 10
--
molecule: O=C(CN1CCCCC1)N1CCC(C(=O)NO)(S(=O)(=O)c2ccc(Oc3ccc(C(F)(F)F)cc3)cc2)CC1
value.kind: IC50
units.symbol: nM
measured.number: 0.3
--
molecule: CCCN(CCCCC(=O)N1CCC(C(=O)NO)(S(=O)(=O)c2ccc(Oc3ccc(C(F)(F)F)cc3)cc2)CC1)CC1CC1
value.kind: IC50
units.symbol: nM
measured.number: 1.2
--
molecule: O=C(c1ccc2ccccc2c1)C1CCN(c2ccc(S(=O)(=O)C3(C(=O)NO)CCN(C4CC4)CC3)cc2)CC1
value.kind: IC50
units.symbol: nM
measured.number: 4.5

Ask: GET /values?readout=IC50&item= `O=C(NO)C1(S(=O)(=O)c2ccc(N3CCC(OCc4ccc(F)cc4)CC3)cc2)CCN(C2CC2)CC1`
Reply: 4.4

Ask: Which IC50 reading was recorded for the molecule CCOC(=O)C1CCN(CC(=O)N2CCC(C(=O)NO)(S(=O)(=O)c3ccc(N4CCC(C(=O)N5CC(C)CC(C)C5)CC4)cc3)CC2)CC1 (centres unmarked) ?
Reply: 77

Ask: Entry under review: `COc1cc(COC2CCN(c3ccc(S(=O)(=O)C4(C(=O)NO)CCOCC4)cc3)CC2)cc(OC)c1` . Reported IC50?
Reply: 18.1

Ask: GET /values?readout=IC50&item= CC1CC(C)CN(C(=O)C2CCN(c3ccc(S(=O)(=O)C4(C(=O)NO)CCN(C(=O)CN5CCC(O)CC5)CC4)cc3)CC2)C1 (centres unmarked)
Reply: 30.6

Ask: Which IC50 value is on record for `Cc1ccc(C(=O)C2CCN(c3ccc(S(=O)(=O)C4(C(=O)NO)CCN(C5CC5)CC4)cc3)CC2)cc1C` ?
Reply: 3

Ask: Consider the molecule shown here: `O=C(NO)C1(S(=O)(=O)c2ccc(N3CCC(Sc4ccccc4)CC3)cc2)CCN(C2CC2)CC1` What is its recorded IC50?
Reply: 1.7

Ask: Tell me the measured IC50 of `COCCN1CCN(c2ccc(S(=O)(=O)C3(C(=O)NO)CCOCC3)cc2)CC1` , please.
Reply: 370

Ask: Which measured IC50 value corresponds to `O=C(NO)C1(S(=O)(=O)c2ccc(N3CCC(Oc4ccc([N+](=O)[O-])c(C(F)(F)F)c4)CC3)cc2)CCOCC1` ?
Reply: 16.9

The origin of these recorded values is patent US6750228B1.
